TEST SYSTEM: HPTPβ (Homo sapiens, UniProt P23467)
Sequence (P23467 23-1997): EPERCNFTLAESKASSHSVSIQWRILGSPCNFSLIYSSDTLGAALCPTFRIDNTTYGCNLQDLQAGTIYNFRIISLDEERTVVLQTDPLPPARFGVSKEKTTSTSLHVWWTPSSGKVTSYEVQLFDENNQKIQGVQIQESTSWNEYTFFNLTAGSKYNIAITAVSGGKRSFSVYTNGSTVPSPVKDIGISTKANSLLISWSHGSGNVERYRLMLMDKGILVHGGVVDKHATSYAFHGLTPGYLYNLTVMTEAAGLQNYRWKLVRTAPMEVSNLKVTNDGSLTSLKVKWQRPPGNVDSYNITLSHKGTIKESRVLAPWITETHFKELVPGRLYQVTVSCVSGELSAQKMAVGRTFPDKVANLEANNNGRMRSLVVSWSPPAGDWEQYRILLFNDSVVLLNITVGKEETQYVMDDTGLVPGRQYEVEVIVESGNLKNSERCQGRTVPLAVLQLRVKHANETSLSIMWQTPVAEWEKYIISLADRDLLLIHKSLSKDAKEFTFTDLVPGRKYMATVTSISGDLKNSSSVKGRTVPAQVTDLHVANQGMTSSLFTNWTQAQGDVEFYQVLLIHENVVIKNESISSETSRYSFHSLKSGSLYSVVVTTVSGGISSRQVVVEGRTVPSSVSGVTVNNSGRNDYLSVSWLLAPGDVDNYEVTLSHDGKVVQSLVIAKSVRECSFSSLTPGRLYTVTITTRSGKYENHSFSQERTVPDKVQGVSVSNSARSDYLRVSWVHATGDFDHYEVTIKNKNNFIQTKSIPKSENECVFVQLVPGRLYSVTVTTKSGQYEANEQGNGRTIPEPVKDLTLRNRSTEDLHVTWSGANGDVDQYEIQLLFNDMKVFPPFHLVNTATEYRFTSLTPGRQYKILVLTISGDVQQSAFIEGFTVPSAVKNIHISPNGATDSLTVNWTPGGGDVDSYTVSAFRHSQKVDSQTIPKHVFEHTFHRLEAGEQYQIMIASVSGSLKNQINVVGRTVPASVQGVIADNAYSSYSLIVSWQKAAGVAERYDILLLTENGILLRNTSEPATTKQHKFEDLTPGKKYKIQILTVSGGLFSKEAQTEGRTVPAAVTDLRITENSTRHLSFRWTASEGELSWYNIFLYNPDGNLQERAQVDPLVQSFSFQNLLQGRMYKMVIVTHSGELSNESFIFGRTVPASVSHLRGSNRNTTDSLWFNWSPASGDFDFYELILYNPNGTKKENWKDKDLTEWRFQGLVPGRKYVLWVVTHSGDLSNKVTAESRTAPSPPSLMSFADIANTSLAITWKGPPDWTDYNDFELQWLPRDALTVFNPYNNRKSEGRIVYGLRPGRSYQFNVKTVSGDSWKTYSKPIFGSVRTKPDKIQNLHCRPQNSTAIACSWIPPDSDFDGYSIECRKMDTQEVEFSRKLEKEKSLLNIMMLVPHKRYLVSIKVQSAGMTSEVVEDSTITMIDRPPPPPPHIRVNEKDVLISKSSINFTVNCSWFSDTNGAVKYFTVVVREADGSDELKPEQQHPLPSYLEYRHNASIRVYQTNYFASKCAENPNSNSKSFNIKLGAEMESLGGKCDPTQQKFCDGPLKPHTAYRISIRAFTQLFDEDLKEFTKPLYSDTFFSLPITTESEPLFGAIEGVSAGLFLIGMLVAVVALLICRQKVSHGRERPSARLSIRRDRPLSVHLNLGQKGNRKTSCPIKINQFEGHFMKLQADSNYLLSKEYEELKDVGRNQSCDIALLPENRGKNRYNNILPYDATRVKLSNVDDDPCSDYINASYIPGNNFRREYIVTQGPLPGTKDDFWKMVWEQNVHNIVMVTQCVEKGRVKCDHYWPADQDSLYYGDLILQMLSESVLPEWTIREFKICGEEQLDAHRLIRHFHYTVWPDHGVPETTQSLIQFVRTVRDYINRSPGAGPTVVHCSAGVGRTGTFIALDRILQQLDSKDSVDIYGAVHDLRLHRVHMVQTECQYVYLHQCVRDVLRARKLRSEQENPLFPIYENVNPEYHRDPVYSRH
TEST DETAILS: HPTPβ inhibitory activity (IC50)
Type: biochemical
OBSERVED PROPERTY: IC50 (nM)
Answer with a number only, understood to be in nM.

May I ask what IC50 has been recorded for CCCc1nc([C@H](Cc2ccc(NS(=O)(=O)O)cc2)NC(=O)OC(C)(C)C)cs1 ?
40
